- Tested on: 958667-338-R-J2-PDC tumor spheroids viability
- Method Description: Anticancer human tumor 958667-338-R-J2-PDC patient-derived colon adenocarcinoma cell line growth inhibition [PI3K]
- Test Context: curve of first compound; second compound 0.316 µM; spheroids with HUVEC and MSC
Measured Endpoint: IC50 (nM)

[a] CCCS(=O)(=O)Nc1ccc(F)c(C(=O)c2c[nH]c3ncc(-c4ccc(Cl)cc4)cc23)c1F + Cc1nc(NC(=O)N2CCCC2C(N)=O)sc1-c1ccnc(C(C)(C)C(F)(F)F)c1
[b] Cn1cnc2c(F)c(Nc3ccc(Br)cc3Cl)c(C(=O)NOCCO)cc21 + CC(Nc1ncnc2nc[nH]c12)c1cc2cccc(Cl)c2c(=O)n1-c1ccccc1
*Q* Input pair: a , b . Output: entry with lower IC50. Kindly give the label for the entry you pick.
*A* b
(b: 363 nM, a: 5170 nM)

* * *

- Tested on: 958667-338-R-J2-PDC tumor spheroids viability
- Method Description: Anticancer human tumor 958667-338-R-J2-PDC cell line growth inhibition [PI3K];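 further: spheroids exposed to compounds for seven days before readout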
- Test Context: curve of first compound; second compound 0.316 µM; spheroids with HUVEC and MSC
Below: a set of entries, each annotated with reported IC50.

Worked examples follow.
molecule="Cn1ncc(Cl)c1-c1cc(C(=O)NC(CN)Cc2cccc(F)c2)sc1Cl (stereo not drawn) + Cc1nc(NC(=O)N2CCCC2C(N)=O)sc1-c1ccnc(C(C)(C)C(F)(F)F)c1" measured_endpoint=IC50 reported_value="1.88 µM"
molecule="C#Cc1c(F)ccc2cc(O)cc(-c3ncc4c(N5CC6CCC(C5)N6)nc(OCC56CCCN5CC(F)C6)nc4c3F)c12 (stereo not drawn) + COc1c(OCCCN2CCOCC2)ccc2c3n(c(=NC(=O)c4cnc(N)nc4)nc12)CCN3" measured_endpoint=IC50 reported_value="< 0.0316 µM"

# context switch: different molecule, same IC50
*Q* Need IC50, item Cn1ncnc1[C@H]1c2n[nH]c(=O)c3cc(F)cc(c23)N[C@@H]1c1ccc(F)cc1 + CC(Nc1ncnc2nc[nH]c12)c1cc2cccc(Cl)c2c(=O)n1-c1ccccc1
*A* > 0.1 µM

* * *

- System: 958667-338-R-J2-PDC tumor spheroids viability
- Method Description: Anticancer human tumor 958667-338-R-J2-PDC cell line growth inhibition [PI3K];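 further: spheroids exposed to compounds for seven days before readout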
- Test Context: second compound 0.01 µM; first compound 0.0316 µM; stronger effect = lower value; spheroids with HUVEC and MSC
# viability, T/C annotations
Number only, in %; omit the unit.

compound="CC1(C)CCC(CN2CCN(c3ccc(C(=O)NS(=O)(=O)c4ccc(NCC5CCOCC5)c([N+](=O)[O-])c4)c(Oc4cnc5[nH]ccc5c4)c3)CC2)=C(c2ccc(Cl)cc2)C1 + COc1c(OCCCN2CCOCC2)ccc2c3n(c(=NC(=O)c4cnc(N)nc4)nc12)CCN3" measured_endpoint="viability, T/C" reported_value=71.8
compound="CC(Cn1ccc(-c2ccc(C#N)c(Cl)c2)n1)NC(=O)c1cc(C(C)O)[nH]n1 (stereo not given) + CC(Nc1ccc2c(c1)OCCn1cc(N3C(=O)OCC3C(F)F)nc1-2)C(N)=O" measured_endpoint="viability, T/C" reported_value=92.7
compound="CCCS(=O)(=O)Nc1ccc(F)c(C(=O)c2c[nH]c3ncc(-c4ccc(Cl)cc4)cc23)c1F + COc1c(OCCCN2CCOCC2)ccc2c3n(c(=NC(=O)c4cnc(N)nc4)nc12)CCN3" measured_endpoint="viability, T/C" reported_value=89.1
compound="Cn1nccc1Nc1nccc(-c2ccn(C(CO)c3ccc(Cl)c(F)c3)c(=O)c2)n1 (stereo not given) + COc1c(OCCCN2CCOCC2)ccc2c3n(c(=NC(=O)c4cnc(N)nc4)nc12)CCN3" measured_endpoint="viability, T/C" reported_value=98.6

Then there is this compound:
*Q* For CC(Cn1ccc(-c2ccc(C#N)c(Cl)c2)n1)NC(=O)c1cc(C(C)O)[nH]n1 (stereo not given) + COc1c(OCCCN2CCOCC2)ccc2c3n(c(=NC(=O)c4cnc(N)nc4)nc12)CCN3 , what is its reported viability, T/C?
*A* 83.1

* * *

- Tested on: 958667-338-R-J2-PDC tumor spheroids viability
- Method Description: Anticancer human tumor 958667-338-R-J2-PDC cell line growth inhibition [PI3K];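 further: spheroids exposed to compounds for seven days before readout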
- Test Context: second compound 0.00316 µM; first compound 0.0316 µM; stronger effect = lower value; spheroids with HUVEC and MSC
Measured Endpoint: viability, T/C (%)
Hi! Could you send only the number? It should be in %, unit omitted.

// below: answered compounds
compound="CCCS(=O)(=O)Nc1ccc(F)c(C(=O)c2c[nH]c3ncc(-c4ccc(Cl)cc4)cc23)c1F + CC(Nc1ccc2c(c1)OCCn1cc(N3C(=O)OCC3C(F)F)nc1-2)C(N)=O" reported_value=99
compound="C=CC(=O)N1CCN(c2nc(=O)n(-c3c(C)ccnc3C(C)C)c3nc(-c4c(O)cccc4F)c(F)cc23)C(C)C1 (stereo not given) + COc1c(OCCCN2CCOCC2)ccc2c3n(c(=NC(=O)c4cnc(N)nc4)nc12)CCN3" reported_value=97.1
compound="CCN1CCN(Cc2ccc(Nc3ncc(F)c(-c4cc(F)c5nc(C)n(C(C)C)c5c4)n3)nc2)CC1 + COc1c(OCCCN2CCOCC2)ccc2c3n(c(=NC(=O)c4cnc(N)nc4)nc12)CCN3" reported_value=82.9
compound="C#Cc1c(F)ccc2cc(O)cc(-c3ncc4c(N5CC6CCC(C5)N6)nc(OCC56CCCN5CC(F)C6)nc4c3F)c12 (stereo not given) + COc1c(OCCCN2CCOCC2)ccc2c3n(c(=NC(=O)c4cnc(N)nc4)nc12)CCN3" reported_value=112
compound="CC1(C)CCC(Nc2ncc(C(F)(F)F)c(-c3c[nH]c4c(P(C)(C)=O)c(C#N)ccc34)n2)CN1 (stereo not given) + CC(Nc1ccc2c(c1)OCCn1cc(N3C(=O)OCC3C(F)F)nc1-2)C(N)=O" reported_value=108
compound="Cn1ncnc1[C@H]1c2n[nH]c(=O)c3cc(F)cc(c23)N[C@@H]1c1ccc(F)cc1 + CC(Nc1ccc2c(c1)OCCn1cc(N3C(=O)OCC3C(F)F)nc1-2)C(N)=O" reported_value=112
compound="CC(Cn1ccc(-c2ccc(C#N)c(Cl)c2)n1)NC(=O)c1cc(C(C)O)[nH]n1 (stereo not given) + CC(Nc1ccc2c(c1)OCCn1cc(N3C(=O)OCC3C(F)F)nc1-2)C(N)=O" reported_value=118
compound="CNC(=O)c1ccc(N2C(=S)N(c3ccc(C#N)c(C(F)(F)F)c3)C(=O)C2(C)C)cc1F + CC(Nc1ccc2c(c1)OCCn1cc(N3C(=O)OCC3C(F)F)nc1-2)C(N)=O" reported_value=96.3

*Q* # viability, T/C lookup, item Cn1nccc1Nc1nccc(-c2ccn(C(CO)c3ccc(Cl)c(F)c3)c(=O)c2)n1 (stereo not given) + COc1c(OCCCN2CCOCC2)ccc2c3n(c(=NC(=O)c4cnc(N)nc4)nc12)CCN3
*A* 93.8

*Q* Subsequent entry: Cn1nccc1Nc1nccc(-c2ccn(C(CO)c3ccc(Cl)c(F)c3)c(=O)c2)n1 (stereo not given) + CC(Nc1ccc2c(c1)OCCn1cc(N3C(=O)OCC3C(F)F)nc1-2)C(N)=O
*A* 91.7

* * *

Attribute: viability, T/C
- System: 958667-338-R-J2-PDC tumor spheroids viability
- Method Description: Anticancer human tumor 958667-338-R-J2-PDC cell line growth inhibition [PI3K];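 further: spheroids exposed to compounds for seven days before readout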
- Test Context: second compound 0.01 µM; first compound 1 µM; stronger effect = lower value; spheroids with HUVEC and MSC
The figure you give is taken to be in %; do not add the unit.

compound="C[C@@H](NC(=O)c1ncnc(N)c1Cl)c1ncc(C(=O)Nc2cc(C(F)(F)F)c(Cl)cn2)s1 + COc1c(OCCCN2CCOCC2)ccc2c3n(c(=NC(=O)c4cnc(N)nc4)nc12)CCN3" measured_endpoint="viability, T/C" reported_value=89.5

*Q* Could you share which viability, T/C value was measured for CNC(=O)c1ccc(N2C(=S)N(c3ccc(C#N)c(C(F)(F)F)c3)C(=O)C2(C)C)cc1F + COc1c(OCCCN2CCOCC2)ccc2c3n(c(=NC(=O)c4cnc(N)nc4)nc12)CCN3 ?
*A* 82.7

*Q* Can you check Cn1ncc(Cl)c1-c1cc(C(=O)NC(CN)Cc2cccc(F)c2)sc1Cl (stereo unspecified) + COc1c(OCCCN2CCOCC2)ccc2c3n(c(=NC(=O)c4cnc(N)nc4)nc12)CCN3 next?
*A* 75.5

*Q* Next up: C#Cc1c(F)ccc2cc(O)cc(-c3ncc4c(N5CC6CCC(C5)N6)nc(OCC56CCCN5CC(F)C6)nc4c3F)c12 (stereo unspecified) + COc1c(OCCCN2CCOCC2)ccc2c3n(c(=NC(=O)c4cnc(N)nc4)nc12)CCN3
*A* 73.3

*Q* Proceed to C=CC(=O)N1CCN(c2nc(=O)n(-c3c(C)ccnc3C(C)C)c3nc(-c4c(O)cccc4F)c(F)cc23)C(C)C1 (stereo unspecified) + CC(Nc1ccc2c(c1)OCCn1cc(N3C(=O)OCC3C(F)F)nc1-2)C(N)=O
*A* 102

*Q* Next compound up: CCN1CCN(Cc2ccc(Nc3ncc(F)c(-c4cc(F)c5nc(C)n(C(C)C)c5c4)n3)nc2)CC1 + COc1c(OCCCN2CCOCC2)ccc2c3n(c(=NC(=O)c4cnc(N)nc4)nc12)CCN3
*A* 51.5

*Q* What about this compound? CNC(=O)c1ccc(N2C(=S)N(c3ccc(C#N)c(C(F)(F)F)c3)C(=O)C2(C)C)cc1F + CC(Nc1ccc2c(c1)OCCn1cc(N3C(=O)OCC3C(F)F)nc1-2)C(N)=O
*A* 97.6

*Q* Would you mind doing Cn1ncc(Cl)c1-c1cc(C(=O)NC(CN)Cc2cccc(F)c2)sc1Cl (stereo unspecified) + CC(Nc1ccc2c(c1)OCCn1cc(N3C(=O)OCC3C(F)F)nc1-2)C(N)=O as well?
*A* 75

*Q* Now give it for CC(C)NCC(C(=O)N1CCN(c2ncnc3c2C(C)CC3O)CC1)c1ccc(Cl)cc1 (stereo unspecified) + COc1c(OCCCN2CCOCC2)ccc2c3n(c(=NC(=O)c4cnc(N)nc4)nc12)CCN3 too.
*A* 100

*Q* Do the same for CCCS(=O)(=O)Nc1ccc(F)c(C(=O)c2c[nH]c3ncc(-c4ccc(Cl)cc4)cc23)c1F + COc1c(OCCCN2CCOCC2)ccc2c3n(c(=NC(=O)c4cnc(N)nc4)nc12)CCN3 please
*A* 84.8

*Q* Param item: CC1(C)CCC(Nc2ncc(C(F)(F)F)c(-c3c[nH]c4c(P(C)(C)=O)c(C#N)ccc34)n2)CN1 (stereo unspecified) + COc1c(OCCCN2CCOCC2)ccc2c3n(c(=NC(=O)c4cnc(N)nc4)nc12)CCN3
*A* 59.8
